tested on: Mycobacterium tuberculosis; test: Cornell - Phenotypic assay to identify agents that inhibit growth of Mycobacterium tuberculosis; assay type: functional; set-up: scale not given: direction of the effect not stated beside the values; details: 10 mM as filed; unlikely as a test dose
The whole screen tested about 53,000 compounds, of which about 900 (1.7%) showed an effect of 50% or more. The list comes from a sample in which strong results are over-represented; it also holds close analogues and randomly drawn compounds.
Percent Effect values by entry
Property Name: Percent Effect (%)

>>> quantitative_readout("O=C(CNc1ccc(OC2CCOC2)cc1)NCc1cccs1 (configuration not stated)")
8.02
>>> quantitative_readout("Cl.Cl.O=C(CN1CCN(CC(O)C2CC2)CC1)NCc1ccc(F)cc1 (configuration not stated)")
12.18
>>> quantitative_readout("O=S(=O)(NCC1COc2ccccc2C1)N1CCCC1 (configuration not stated)")
15.67
>>> quantitative_readout("CC(NC(=O)OC(C)(C)C)c1nnc(S(=O)(=O)Cc2ccccc2Cl)o1 (configuration not stated)")
105.8
>>> quantitative_readout("Cn1cc(CN2CCCCC2c2ccc(-c3cccc(Cl)c3)nc2)cn1 (configuration not stated)")
30.06
>>> quantitative_readout("COc1cc(N2CCC3(CCN(Cc4csc(C)n4)C3)CC2)ncn1.O=C(O)C(F)(F)F")
24.59
>>> quantitative_readout("CNc1ccc(C2CN(c3nc(C)cc(C)n3)CCO2)nc1 (configuration not stated)")
51.49
>>> quantitative_readout("Cc1nn(C)cc1-c1cc(C(F)(F)F)n(CCCN)n1")
-15.46
>>> quantitative_readout("O=C(CNc1ccc(OC2CCOC2)cc1)NCc1ccco1 (configuration not stated)")
37.67
>>> quantitative_readout("c1nc(-c2nc(C3CCOC3)no2)cs1 (configuration not stated)")
-30.96
>>> quantitative_readout("Cc1cn2c(n1)CCC(NC(=O)Cn1cncn1)C2 (configuration not stated)")
-12.63
>>> quantitative_readout("C[C@H](NC(=O)OC(C)(C)C)c1nnc(S(=O)(=O)Cc2cccc(F)c2)o1")
-26.24
>>> quantitative_readout("O=C(N1CCOCC1)[C@@]12CCO[C@@H]1CCN(C1CCCCC1)C2.O=C(O)C(F)(F)F")
-10.99
>>> quantitative_readout("CCS(=O)(=O)N1CCc2ccc(NC(=O)NCCc3ccccc3)cc21")
30.28
>>> quantitative_readout("O=C(C1CCOC1)N1C[C@@H]2CCN(C(=O)c3cscn3)[C@@H]2C1 (some centres not stated)")
-35.62
>>> quantitative_readout("CC(OCC1CC1)C(=O)Nc1ccn(Cc2ccccc2)n1 (configuration not stated)")
-1.057
>>> quantitative_readout("Cc1ccccc1CNC(=O)CNc1ccc(OC2CCOC2)cc1 (configuration not stated)")
74.57
>>> quantitative_readout("O=C(NCc1ccc(F)cc1)N1CCC(C2OCCO2)CC1")
9.763
>>> quantitative_readout("O=C(CNc1ccc(OC2CCOC2)cc1)NCc1ccc(F)cc1 (configuration not stated)")
70.37
>>> quantitative_readout("Cc1ccc(CN2CC[C@H]3C[C@@H](c4nc(C5CC5)cs4)O[C@@H]3C2)o1")
40.45
>>> quantitative_readout("CCc1ncc(CN[C@@H]2CCCN(C(C)=O)[C@H]2c2ccc(C)s2)cn1.Cl")
15.97
>>> quantitative_readout("Cc1ccc(CN2CC[C@H]3C[C@H](c4nc(C5CC5)cs4)O[C@@H]3C2)o1")
67.24
